Taken from the supplement of paper PMC11451515.

// reported cell viability for each item listed
Tested on: P12-Ichikawa
PROCEDURE DETAILS: cell viability relative to DMSO control; higher = less cytotoxic
REPORTED CONDITIONS: RPMI 5 mM glucose + 10% dialyzed FBS; 48 h; 0.19 µM

- COMPOUND: "CC#CCn1c(N2CCC[C@@H](N)C2)nc2c1c(=O)n(Cc1nc(C)c3ccccc3n1)c(=O)n2C"
  VALUE UNITS: "%"
  cell viability: 109
- COMPOUND: "NC(=O)c1ccc(N(C(N)=O)c2c(F)cccc2F)nc1-c1ccc(F)cc1F"
  VALUE UNITS: "%"
  cell viability: 92.1
- COMPOUND: "O=C(O)c1cccnc1Nc1cccc(C(F)(F)F)c1"
  VALUE UNITS: "%"
  cell viability: 119
- COMPOUND: "CC(C(=O)O)c1ccc2c(c1)CC(=O)c1ccccc1S2 (stereo unspecified)"
  VALUE UNITS: "%"
  cell viability: 107
- COMPOUND: "CC(C)OC(=O)[C@H](C)N[P@](=O)(OC[C@H]1O[C@@H](N2\\C=C/C(=O)NC2=O)[C@](C)(F)[C@@H]1O)OC3=CC=CC=C3"
  VALUE UNITS: "%"
  cell viability: 102
- COMPOUND: "O=C(CCCN1CCN(c2ccc(F)cc2)CC1)NC1c2ccccc2CSc2ccccc21 (stereo unspecified)"
  VALUE UNITS: "%"
  cell viability: 115
- COMPOUND: "CC1=CC(=CC(=C1C\\C2=N\\CCN2)C)C(C)(C)C"
  VALUE UNITS: "%"
  cell viability: 92.9
- COMPOUND: "Nc1ncnc2c1ncn2[C@@H]1O[C@H](CO)C[C@H]1O"
  VALUE UNITS: "%"
  cell viability: 91.2
- COMPOUND: "COc1ccc(C(=O)CC2(O)C(=O)Nc3c(Cl)ccc(Cl)c32)cc1 (stereo unspecified)"
  VALUE UNITS: "%"
  cell viability: 128
- COMPOUND: "C[C@@H](CN1CC(=O)NC(=O)C1)N1CC(=O)NC(=O)C1"
  VALUE UNITS: "%"
  cell viability: 84
- COMPOUND: "CNC(=O)c1ccc(Nc2cc(Nc3ccccc3[S+](=O)([O-])C(C)C)c3cc[nH]c3n2)nc1"
  VALUE UNITS: "%"
  cell viability: 118
- COMPOUND: "CN1CC(=O)N2[C@H](c3ccc4c(c3)OCO4)c3[nH]c4ccccc4c3C[C@@H]2C1=O"
  VALUE UNITS: "%"
  cell viability: 92.1
- COMPOUND: "C=C[C@H]1CN2CCC1C[C@@H]2C(O)c1ccnc2ccc(OC)cc12 (stereo partly specified)"
  VALUE UNITS: "%"
  cell viability: 128
- COMPOUND: "O=C(O)c1cc(/N=N/c2ccc([S+](=O)([O-])Nc3ccccn3)cc2)ccc1O"
  VALUE UNITS: "%"
  cell viability: 114
- COMPOUND: "Oc1nc(-c2ccc(C(F)(F)F)cc2)nc2c1CSCC2"
  VALUE UNITS: "%"
  cell viability: 94.7
- COMPOUND: "CCCCOCCOc1nc(-c2ccc(C(=O)O)c(F)c2)sc1C"
  VALUE UNITS: "%"
  cell viability: 114
- COMPOUND: "CN(C)CC(C)(C)CNc1nn2c(-c3ccccc3)nnc2cc1C1CCC1"
  VALUE UNITS: "%"
  cell viability: 115
- COMPOUND: "CNCC[C@H](Oc1cccc2ccccc12)c1cccs1"
  VALUE UNITS: "%"
  cell viability: 116
- COMPOUND: "O=P(O)(O)C(O)(Cn1ccnc1)P(=O)(O)O"
  VALUE UNITS: "%"
  cell viability: 120
- COMPOUND: "CC(=O)Oc1ccccc1C(=O)Nc1ncc([N+](=O)[O-])s1"
  VALUE UNITS: "%"
  cell viability: 95.4
- COMPOUND: "COc1c(C)c2c(c(O)c1C/C=C(\\C)CCC(=O)O)C(=O)OC2"
  VALUE UNITS: "%"
  cell viability: 97.6
